System: spring barley (Hordeum vulgare L; HORVS)
ASSAY TEXT: Postemergence herbicidal safening in cereal crops, greenhouse, visual injury: spring barley
Assay type: in vivo
TEST CONTEXT: Hordeum vulgare, post-emergence, 480 h; herbicide alone 140 g/ha; 20-22 d; read-out: HORVS Ob (visual injury)
Known pest or weed control at 140 g/ha of a selection of compounds
ENDPOINT: pest or weed control at 140 g/ha (%)

[
  {
    "COMPOUND": "C=Cc1c(N)nc(-c2ccc(Cl)c(OC)c2F)nc1C(=O)OC [Compound 5]",
    "TARGET DESC": "spring barley (Hordeum vulgare L; HORVS)",
    "ENDPOINT": "pest or weed control at 140 g/ha",
    "RECORDED NUMBER": 0
  },
  {
    "COMPOUND": "COc1c(Cl)ccc(-c2nc(N)c(Cl)c(C(=O)O)n2)c1F [Compound 1]",
    "TARGET DESC": "spring barley (Hordeum vulgare L; HORVS)",
    "ENDPOINT": "pest or weed control at 140 g/ha",
    "RECORDED NUMBER": 30
  },
  {
    "COMPOUND": "COc1c(N)nc(-c2ccc(C)cc2)nc1C(=O)O [Compound 6]",
    "TARGET DESC": "spring barley (Hordeum vulgare L; HORVS)",
    "ENDPOINT": "pest or weed control at 140 g/ha",
    "RECORDED NUMBER": 40
  },
  {
    "COMPOUND": "COc1c(N)nc(-c2ccc(Cl)c(OC)c2F)nc1C(=O)O [Compound 8]",
    "TARGET DESC": "spring barley (Hordeum vulgare L; HORVS)",
    "ENDPOINT": "pest or weed control at 140 g/ha",
    "RECORDED NUMBER": 85
  },
  {
    "COMPOUND": "COc1c(N)nc(-c2ccc(Cl)c(F)c2)nc1C(=O)O [Compound 9]",
    "TARGET DESC": "spring barley (Hordeum vulgare L; HORVS)",
    "ENDPOINT": "pest or weed control at 140 g/ha",
    "RECORDED NUMBER": 70
  },
  {
    "COMPOUND": "C=Cc1c(N)nc(-c2ccc(Cl)c(N(C)C)c2F)nc1C(=O)O [Compound 7]",
    "TARGET DESC": "spring barley (Hordeum vulgare L; HORVS)",
    "ENDPOINT": "pest or weed control at 140 g/ha",
    "RECORDED NUMBER": 45
  }
]
